Measurement Target: T1, recombinant human IL4Rα-his protein (in house made) (human, UniProt P24394 26-232, limits assumed)
T1 construct: also called Human IL4Ra-his
Assay Explanation: SPR (Biacore), antibody captured, IL4Rα-his flowed
Readout Kind: kon
Value and unit, in that order.

Recorded kon of mouse antibody B1D2F7D3B5 (antibody, V domains shown, Mouse hybridoma mAb) VH: EVKLVESGGGLVKPGGSLKLSCAASGFTFSSYAMSWVRQTPEKRLEWVASISSGDSTYYLDSVKGRFTISRDNAMNILYLQMSSLRSEDTAVYYCERSGGSAPYWGQGTLVSVSA VL: QIVLTQSPAIMSASPGEMVTISCSASSSVSYMYWYQQKPGSSPKPWIYRTSNLASGVPARFSGSGSGTSYSLTISSMEAEDAATYYCQQYHSFPLTFGAGTKLELK , please.
427000 M⁻¹ s⁻¹

Values compiled from patent US20230105029A1.
